- Tested on: MZ7-mel;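 also: growth inhibition of human MZ7-mel cells, measured by a cell viability assay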
- protocol_summary: cells
- Format: functional, cell-based, Homo sapiens
- settings: Homo sapiens, MZ7-mel
- Description: SANGER: Inhibition of human MZ7-mel cell growth in a cell viability assay.
The entries below come with measured IC50 values attached.

Sample answers from the record:
* OC[C@H](Cc1ccccc1)Nc1nc(Oc2ccc3c(c2)CCC3)nc2c1ncn2Cc1ccc(-c2ccccc2)cc1 | 8.89 µM
* O=C(NCCCNc1nc(Nc2cccc(NC(=O)N3CCCC3)c2)ncc1I)c1cccs1 | > 5 µM
* COc1ccc(-c2cc3nccn3c(Nc3ncccc3C(N)=O)n2)cc1OC | > 8 µM
* NC(=O)Nc1cc(-c2cccc(F)c2)sc1C(=O)N[C@H]1CCCNC1 | 0.347 µM
* CS(=O)(=O)N1CCN(Cc2cc3nc(-c4cccc5[nH]ncc45)nc(N4CCOCC4)c3s2)CC1 | > 4 µM
* COc1ccc(N(C(=O)Oc2c(C)cccc2C)c2ccnc(Nc3ccc(N4CCN(C)CC4)cc3)n2)c(OC)c1 | 5.09 µM
* O=C1NC(=O)c2c1c(-c1ccccc1Cl)cc1[nH]c3ccc(O)cc3c21 | > 2 µM

Now for the compound whose IC50 we want.
IN: Indicate its recorded IC50; the compound in question is C=CC(=O)N1CCCC(Nc2nc(Nc3ccc(N(C)C(=O)CC)cc3)nc3[nH]cnc23)C1 (stereo not drawn)
OUT: > 10.2 µM

###

The entries below come with measured IC50 values attached.
- Tested on: CWR22R;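 also: growth inhibition of 22Rv1 cells, read out with a cell viability assay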
- protocol_summary: cells
- Format: functional, cell-based
- settings: Homo sapiens, 22Rv1
- Description: SANGER: Inhibition of human 22RV1 cell growth in a cell viability assay.

Sample answers from the record:
• NC1(c2ccc(-c3nc4ccn5c(=O)[nH]nc5c4cc3-c3ccccc3)cc2)CCC1 = > 4 µM
• CS(=O)(=O)N1CCN(Cc2cc3nc(-c4cccc5[nH]ncc45)nc(N4CCOCC4)c3s2)CC1 = 2.46 µM

IN: Indicate its recorded IC50; the compound in question is C/C(=C\c1csc(C)n1)[C@@H]1C[C@@H]2O[C@]2(C)CCC[C@H](C)[C@H](O)[C@@H](C)C(=O)C(C)(C)[C@@H](O)CC(=O)O1
OUT: 0.00841 µM

###

The entries below come with measured pIC50 values attached.
- Test system: RCM-1;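 also: growth inhibition of the RCM-1 line, determined with a cell viability readout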
- protocol_summary: cells
- Format: functional, cell-based
- settings: Homo sapiens
- Description: SANGER: Inhibition of human RCM-1 cell growth in a cell viability assay.
pIC50: −log10 of the molar value.

Sample answers from the record:
• Cc1ccc(C(=O)Nc2ccc(CN3CCN(C)CC3)c(C(F)(F)F)c2)cc1C#Cc1cnc2cccnn12 = < 6.29
• CS(=O)(=O)N1CCN(Cc2cc3nc(-c4cccc5[nH]ncc45)nc(N4CCOCC4)c3s2)CC1 = < 5.40
• CN(C)CCOc1ccc(-c2nc(-c3ccncc3)c(-c3ccc4c(c3)CC/C4=N\O)[nH]2)cc1 = < 5.30
• OC[C@H](Cc1ccccc1)Nc1nc(Oc2ccc3c(c2)CCC3)nc2c1ncn2Cc1ccc(-c2ccccc2)cc1 = < 4.99
• C/C(=C\c1csc(C)n1)[C@@H]1C[C@@H]2O[C@]2(C)CCC[C@H](C)[C@H](O)[C@@H](C)C(=O)C(C)(C)[C@@H](O)CC(=O)O1 = 7.82

IN: Indicate its recorded pIC50; the compound in question is NC1(c2ccc(-c3nc4ccn5c(=O)[nH]nc5c4cc3-c3ccccc3)cc2)CCC1
OUT: < 5.40

IN: Indicate its recorded pIC50; the compound in question is COC(=O)[C@H](CCSC)NC(=O)c1ccc(NC[C@@H](N)CS)cc1-c1ccccc1
OUT: < 5.99

###

- System: CHP-212
- protocol_summary: cells
- Type: functional, cell-based
- settings: Homo sapiens
- Description: SANGER: Inhibition of human CHP-212 cell growth in a cell viability assay.
property_label: IC50

Sample answers from the record:
• O=C1NC(=O)c2c1c(-c1ccccc1Cl)cc1[nH]c3ccc(O)cc3c21 = 0.619 µM
• CC1=C(/C=C/C(C)=C/C=C/C(C)=C/C(=O)O)C(C)(C)CCC1 [TRETINOIN] = > 10 µM
• COC(=O)[C@H](CCSC)NC(=O)c1ccc(NC[C@@H](N)CS)cc1-c1ccccc1 = > 1.02 µM
• CN(NC(=O)CC(=O)NN(C)C(=S)c1ccccc1)C(=S)c1ccccc1 [ELESCLOMOL] = 0.00734 µM
• O=C(NCCCNc1nc(Nc2cccc(NC(=O)N3CCCC3)c2)ncc1I)c1cccs1 [BX-795] = 1.14 µM
• O=S(=O)(O)c1ccc2cc(/N=N/c3cc(S(=O)(=O)O)c4cccnc4c3O)ccc2c1 = > 16 µM
• OC[C@H](Cc1ccccc1)Nc1nc(Oc2ccc3c(c2)CCC3)nc2c1ncn2Cc1ccc(-c2ccccc2)cc1 = > 10.2 µM

Now for the compound whose IC50 we want.
IN: Indicate its recorded IC50; the compound in question is NC(=O)Nc1cc(-c2cccc(F)c2)sc1C(=O)N[C@H]1CCCNC1 [AZD-7762]
OUT: 0.198 µM

###

- Test system: IST-SL2;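 also: growth inhibition of human IST-SL2 cells, read out by a cell viability assay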
- protocol_summary: cells
- Format: functional, cell-based, Homo sapiens
- settings: ist-sl2
- Description: SANGER: Inhibition of human IST-SL2 cell growth in a cell viability assay.
Where a SMILES comes first, the peptide text is derived from it. The star is where a group is joined. Cbz = O=C(OCc1ccccc1)*
property_label: IC50

IN: Indicate its recorded IC50; the molecule in question is CC(C)C[C@@H](C=O)NC(=O)[C@H](CC(C)C)NC(=O)[C@H](CC(C)C)NC(=O)OCc1ccccc1 [MG-132] (Cbz-Leu-Leu-Leu-aldehyde)
OUT: > 1000 nM

###

- System: NCI-H128
- protocol_summary: SANGER: Inhibition of human NCI-H128 cell growth in a cell viability assay.
- Type: functional, cell-based
- settings: Homo sapiens, NCI-H128
The entries below come with measured IC50 values attached.

* Cc1ccc(NC(=O)c2ccc(CN3CCN(C)CC3)cc2)cc1Nc1nccc(-c2cccnc2)n1 | > 2 µM

Now for the molecule whose IC50 we want.
IN: Indicate its recorded IC50; the molecule in question is Nc1ccccc1NC(=O)c1ccc(CNC(=O)OCc2cccnc2)cc1
OUT: > 5 µM

###

- Tested on: MDA-MB-134-VI
- protocol_summary: cells
- Format: functional, cell-based, Homo sapiens
- settings: Homo sapiens, MDA-MB-134-VI
- Description: SANGER: Inhibition of human MDA-MB-134-VI cell growth in a cell viability assay.
property_label: IC50

* Cc1ccc(C(=O)Nc2ccc(CN3CCN(C)CC3)c(C(F)(F)F)c2)cc1C#Cc1cnc2cccnn12 | > 512 nM
* Nc1ccccc1NC(=O)c1ccc(CNC(=O)OCc2cccnc2)cc1 | 1290 nM
* CCCCCCCCCCCC1=C(O)C(=O)C=C(O)C1=O | > 32000 nM
* C[C@@H](Oc1cc(-c2cnn(C3CCNCC3)c2)cnc1N)c1c(Cl)ccc(F)c1Cl | > 2000 nM

Now for the compound whose IC50 we want.
IN: Indicate its recorded IC50; the compound in question is COc1ccc(-c2cc3nccn3c(Nc3ncccc3C(N)=O)n2)cc1OC
OUT: > 8000 nM

###

The entries below come with measured IC50 values attached.
- Tested on: C32;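 also: cell viability assay, with IC50 reflecting inhibition of C32 cell growth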
- protocol_summary: cells
- Assay type: functional, cell-based
- settings: Homo sapiens
- Description: SANGER: Inhibition of human C32 cell growth in a cell viability assay.
Response body: numeric value in nM, unit text excluded.

- O=C(NCCCNc1nc(Nc2cccc(NC(=O)N3CCCC3)c2)ncc1I)c1cccs1: 1760

IN: Indicate its recorded IC50; the molecule in question is CC1(C)CCC(c2ccc(Cl)cc2)=C(CN2CCN(c3ccc(C(=O)NS(=O)(=O)c4ccc(N[C@H](CCN5CCOCC5)CSc5ccccc5)c(S(=O)(=O)C(F)(F)F)c4)cc3)CC2)C1
OUT: 1190

###

- Tested on: TE-9
- protocol_summary: cells
- Assay type: functional, cell-based, Homo sapiens
- settings: Homo sapiens, TE-9
- Description: SANGER: Inhibition of human TE-9 cell growth in a cell viability assay.
property_label: IC50

IN: Write down measured IC50 (TE-9) for this molecule. Cc1ccc(NC(=O)c2ccc(CN3CCN(C)CC3)cc2)cc1Nc1nccc(-c2cccnc2)n1 [IMATINIB]
OUT: > 2000 nM

IN: Write down measured IC50 (TE-9) for this molecule. NC(=O)c1ccc(N(C(N)=O)c2c(F)cccc2F)nc1-c1ccc(F)cc1F [VX-702]
OUT: > 2000 nM

IN: Write down measured IC50 (TE-9) for this molecule. C[C@@H](Oc1cc(-c2cnn(C3CCNCC3)c2)cnc1N)c1c(Cl)ccc(F)c1Cl [CRIZOTINIB]
OUT: > 2000 nM

IN: Write down measured IC50 (TE-9) for this molecule. Cc1ccc(C(=O)Nc2ccc(CN3CCN(C)CC3)c(C(F)(F)F)c2)cc1C#Cc1cnc2cccnn12 [PONATINIB]
OUT: > 512 nM

IN: Write down measured IC50 (TE-9) for this molecule. NC(=O)Nc1cc(-c2cccc(F)c2)sc1C(=O)N[C@H]1CCCNC1 [AZD-7762]
OUT: 1630 nM

IN: Write down measured IC50 (TE-9) for this molecule. O=C(NCCCNc1nc(Nc2cccc(NC(=O)N3CCCC3)c2)ncc1I)c1cccs1 [BX-795]
OUT: > 5000 nM

###

- System: LU-134-A
- protocol_summary: cells
- Type: functional, cell-based, Homo sapiens
- settings: Homo sapiens, LU-134-A
- Description: SANGER: Inhibition of human LU-134-A cell growth in a cell viability assay.
property_label: IC50 (nM)
Response body: numeric value in nM, unit text excluded.

• O=C1NC(=O)c2c1c(-c1ccccc1Cl)cc1[nH]c3ccc(O)cc3c21 = 917
• Cc1cc(N2CCOCC2)cc2[nH]c(-c3c(NC[C@@H](O)c4cccc(Cl)c4)cc[nH]c3=O)nc12 = 1600
• CC1(C)CCC(c2ccc(Cl)cc2)=C(CN2CCN(c3ccc(C(=O)NS(=O)(=O)c4ccc(N[C@H](CCN5CCOCC5)CSc5ccccc5)c(S(=O)(=O)C(F)(F)F)c4)cc3)CC2)C1 [NAVITOCLAX] = 187

Now for the compound whose IC50 we want.
IN: Write down measured IC50 (LU-134-A) for this compound. Nc1ccccc1NC(=O)c1ccc(CNC(=O)OCc2cccnc2)cc1 [ENTINOSTAT]
OUT: 571

Recorded values, source ChEMBL document CHEMBL1201861.
